Below, each entry is listed with its recorded Kd.
target: human PCSK9 reference (human, UniProt Q8NBP7 31-692); assay: ProteOn SPR, captured antibody, pH 7.6;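 note: antibodies captured via anti-human Fc on a GLC sensor chip, PCSK9 binding sensorgrams fitted to a 1:1 Langmuir model giving on and off rates, with KD derived from them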
experimental.readout: Kd (nM)

INSERT INTO measurements (binder, experimental_value) VALUES
  ('CL-148219 (antibody, V domains shown, NLT motif in heavy chain framework 3 confirmed N-glycosylated by mass spectrometry, Human antibody, captured through anti-human Fc in the SPR assay) VH: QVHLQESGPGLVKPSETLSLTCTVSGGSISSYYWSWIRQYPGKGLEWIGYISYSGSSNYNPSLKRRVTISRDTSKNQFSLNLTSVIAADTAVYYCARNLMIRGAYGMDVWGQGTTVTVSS VL: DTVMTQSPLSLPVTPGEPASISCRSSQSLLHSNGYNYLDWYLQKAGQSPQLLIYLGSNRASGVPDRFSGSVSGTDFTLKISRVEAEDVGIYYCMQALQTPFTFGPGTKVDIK', 0.205),
  ('CL-274698 (antibody, V domains shown, Human antibody with a kappa light chain, derived from a PCSK9 knockout mouse) VH: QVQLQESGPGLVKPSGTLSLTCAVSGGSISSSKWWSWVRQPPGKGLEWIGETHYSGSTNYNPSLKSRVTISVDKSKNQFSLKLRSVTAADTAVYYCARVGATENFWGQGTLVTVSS VL: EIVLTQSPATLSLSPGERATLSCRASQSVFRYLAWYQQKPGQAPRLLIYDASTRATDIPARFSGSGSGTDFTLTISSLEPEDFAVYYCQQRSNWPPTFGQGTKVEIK', 0.0929),
  ('CL-148489 (antibody, V domains shown, Human antibody with a kappa light chain) VH: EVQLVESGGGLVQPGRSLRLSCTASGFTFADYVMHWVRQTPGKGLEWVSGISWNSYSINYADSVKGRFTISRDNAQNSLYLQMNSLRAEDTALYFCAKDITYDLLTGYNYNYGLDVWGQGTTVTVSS VL: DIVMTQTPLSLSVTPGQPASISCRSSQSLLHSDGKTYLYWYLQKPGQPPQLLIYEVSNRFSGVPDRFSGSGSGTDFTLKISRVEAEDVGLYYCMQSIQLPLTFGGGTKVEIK', 0.176);
